Attribution: patent US20240400708A1

STUDY_SYSTEM: Feline FcRn complex (FcRn-alpha subunit and beta-microglobulin) (feline)
RUN_DESCRIPTION: SPR (Biacore), feline FcRn captured on SA chip, IgG flowed over, pH 6
What pKd was measured for each of the following?
To interpret pKd, take it as minus log10 of a concentration measured in moles per litre.

[in] Note pKd for the binder shown: feline IgG1a Fc mutant Q311M, S428M (antibody, part only; not given: Variable domains, not shown: another chain or arm of the molecule; small tags and cut ends) constant: ASTTAPSVFPLAPSCGTTSGATVALACLVLGYFPEPVTVSWNSGALTSGVHTFPAVLQASGLYSLSSMVTVPSSRWLSDTFTCNVAHPPSNTKVDKTVRKTDHPPGPKPCDCPKCPPPEMLGGPSIFIFPPKPKDTLSISRTPEVTCLVVDLGPDDSDVQITWFVDNTQVYTAKTSPREEQFNSTYRVVSVLPILHMDWLKGKEFKCKVNSKSLPSPIERTISKAKGQPHEPQVYVLPPAQEELSRNKVSVTCLIKSFHPPDIAVEWEITGQPEPENNYRTTPPQLDSDGTYFVYSKLSVDRSHWQRGNTYTCSVMHEALHSHHTQKSLTQSPGK
[out] 8.25

[in] Note pKd for the binder shown: feline IgG1a Fc mutant Q311Y, S428Y (antibody, part only; not given: Variable domains, not shown: another chain or arm of the molecule) constant: ASTTAPSVFPLAPSCGTTSGATVALACLVLGYFPEPVTVSWNSGALTSGVHTFPAVLQASGLYSLSSMVTVPSSRWLSDTFTCNVAHPPSNTKVDKTVRKTDHPPGPKPCDCPKCPPPEMLGGPSIFIFPPKPKDTLSISRTPEVTCLVVDLGPDDSDVQITWFVDNTQVYTAKTSPREEQFNSTYRVVSVLPILHYDWLKGKEFKCKVNSKSLPSPIERTISKAKGQPHEPQVYVLPPAQEELSRNKVSVTCLIKSFHPPDIAVEWEITGQPEPENNYRTTPPQLDSDGTYFVYSKLSVDRSHWQRGNTYTCSVYHEALHSHHTQKSLTQSPGK
[out] 8.25
